Entries and their measured observed Tmax: time required to reach Cmax follow.
Assay: Acute intervention: nutrikinetics of plasma metabolites after ingestion of O. europaea extract (untargeted HPLC-ESI-QTOF-MS)
Conditions: human, in vivo, po, 500 mg
assayReadout: observed Tmax: time required to reach Cmax (h)

compound: C=Cc1ccc(O)c(OC)c1 [p-vinylguaiacol]
valueMeasured: 1
//
compound: O=C(O)CCCCCCCCC(=O)O [debacic acid isomer 3, sebacic acid]
valueMeasured: 6
//
compound: O=c1cc(-c2ccc(O)cc2)oc2c([C@@H]3O[C@H](CO)[C@@H](O)[C@H](O)[C@H]3O)c(O)c([C@@H]3O[C@H](CO)[C@@H](O)[C@H](O)[C@H]3O)c(O)c12 [vicenin-2]
valueMeasured: 1
//
compound: COc1cc(CCC(=O)O)ccc1O[C@@H]1O[C@H](C(=O)O)[C@@H](O)[C@H](O)[C@H]1O [dihydroferulic acid 4-O-glucuronide]
valueMeasured: 2
//
compound: COc1cc(CCC(=O)O)ccc1OS(=O)(=O)O [dihydroferulic acid 4-sulfate]
valueMeasured: 1.3
//
compound: COc1cc(C=O)ccc1O[C@@H]1O[C@H](C(=O)O)[C@@H](O)[C@H](O)[C@H]1O [vanillin glucuronide]
valueMeasured: 1

Data provenance: paper PMC11544713
